- PROTOCOL NOTES: Enhancement of bioavailability of drugs given to rats with bioenhancers (plasma drug level by HPLC)
- TEST PARAMETERS: drug with Carum carvi bioenhancer and piperine 8 mg/kg, drug dose as in row
MEASURED METRIC: % Enhancement in bioavailability, Carum carvi + Piperine (%)
Write the answer as a number in %, unit excluded.

CN(Cc1cnc2nc(N)nc(N)c2n1)c1ccc(C(=O)N[C@@H](CCC(=O)O)C(=O)O)cc1 [Methotrexate]    89
O=C(CCCN1CCC(O)(c2ccc(Cl)cc2)CC1)c1ccc(F)cc1    90
CCc1cc(C(N)=S)ccn1 [Ethionamide]    65
Cc1nnc2n1-c1ccc(Cl)cc1C(c1ccccc1)=NC2    70
Nc1ccc(S(=O)(=O)c2ccc(N)cc2)cc1    67
CN/C(=N/CCSCc1nc[nH]c1C)NC#N    84
CC(C)(C)NCC(O)c1ccc(O)c(CO)c1 (centres unmarked)    89

Form field % Enhancement in bioavailability, Carum carvi + Piperine, entry `O=c1[nH]cc(F)c(=O)[nH]1` : 110

Hey, just so you know, these numbers are from patent US20080292736A1.
